Every entry's value here was drawn from patent US20130195872A1.

# studySystem: T1, cynomolgus IL-17A homodimer (cynomolgus, UniProt A0A2K5TTB0 20-155)
# T1 sequence: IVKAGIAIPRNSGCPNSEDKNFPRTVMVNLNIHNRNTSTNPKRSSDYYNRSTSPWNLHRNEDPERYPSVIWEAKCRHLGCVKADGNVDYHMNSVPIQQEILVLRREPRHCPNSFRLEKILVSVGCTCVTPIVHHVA
# procedureDetails: cell-based or functional assay
Kindly state IC50, IL-6 secretion by MEF cells, cytokine at 5 ng/ml for each of the entries shown.
Numbers only, in nM.

// solved cases for IC50, IL-6 secretion by MEF cells, cytokine at 5 ng/ml follow
>  <binder>
29D8 antibody (antibody, IgG1, V domains shown) VH: QVQLVQSGAEVKKPGASVKVSCKAFAYTFSTYGISWVRQAPGQGLEWMGWISAYNSNTNYAQKVQGRITMTTDTSTRTAYMELRGLRSDDTAVYFCATFFGGHSGYHYGLDVWGQGTTVTVSS VL: EIVLTQSPATLSLSPGERATLSCRASQSVSSYLAWYQQKPGQAPRLLIYDASNRATGIPARFSGSGSGTDFTLTISSLEPEDFAVYYCQQRSNWPPYTFGQGTKLEIK

>  <readoutValue>
8.4

$$$$
>  <binder>
1E4 antibody (antibody, IgG4, V domains shown) VH: QVQLVQSGAEVKKPGASVKVSCKASVYTFTTYGISWVRQAPGQGLEWMGWISVYNGNTNYGQNFQGRVSMTTDTSTSTAYMELRSLRSDDTAVYYCASFHGGHSGYHYGLDVWGQGTTVTVSS VL: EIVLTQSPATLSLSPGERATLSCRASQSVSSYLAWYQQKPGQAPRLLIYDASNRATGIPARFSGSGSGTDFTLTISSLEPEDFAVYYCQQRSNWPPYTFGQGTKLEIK

>  <readoutValue>
330

$$$$

Required: IC50, IL-6 secretion by MEF cells, cytokine at 5 ng/ml, one value per binder below.
1. 8B11 antibody (antibody, IgG3, V domains shown) VH: EVQLVESGGGLVHPGGSLRLSCAASGFTFSSFNMDWVRQAPGKGLEWVSSISTTSRIIYSADSVKGRFTISRDNARNSLYLQMNSLRDEDTAVYYCARVSYYGHGFDYWGQGTLVTVSS VL: DIQMTQSPSSLSASVGDRVTITCRASQGISSWLAWYQQKPEKAPKSLIYAASSLQSGVPSRFSGSGSGTDFTLTISSLQPEDFATYYCQQYNSYPLTFGGGTKVEIK
2. 39F12 antibody (antibody, IgG4, V domains shown, also called Mab06a; 39F12 IgG4) VH: QVQLVQSGAEVKKPGSSVKVSCKASGGTLSSYAFSWVRQAPGQGLEWMGGIIPFFGTTNYAQKFQGRVIITADESTNTAYMELSGLRSEDTAVYYCARDRDYYGLGSPFYYYGMDVWGQGTTVTVSS VL: EIVLTQSPDFQSVTPKEKVTITCRASQSIGSSLHWYQQKPDQSPKLLIKYASQSFSGVPSRFSGSGSGTDFTLTINSLEAEDAAAYYCHQSSSLPWTFGQGTKVEIK

Result:
1: 230; 2: 4.7
